Assay: Volume of distribution in Beagle dog at 1 mg/kg, iv
Assay type: ADME, organism-based, Canis lupus familiaris
Set-up: dose 1 mg/kg, route intravenous
Conditions: in vivo

| structure-as-smiles | Vd / L/kg |
| --- | --- |
| CC1=C2C[C@H]3[C@@H](CCC4=CC(=O)CC[C@@]43C)[C@@H]2CC[C@@]2(C1)O[C@@H]1C[C@H](C)CN[C@H]1[C@H]2C | 13.9 |
| CC1=C2C[C@H]3[C@@H](CC[C@@H]4CNC(=O)CC[C@@]43C)[C@@H]2CC[C@@]2(C1)O[C@@H]1C[C@H](C)CN[C@H]1[C@H]2C | 3 |
| CC1=C2C[C@H]3[C@@H](CC[C@@H]4C[C@H](NS(C)(=O)=O)CC[C@@]43C)[C@@H]2CC[C@@]2(C1)O[C@@H]1C[C@H](C)CN[C@H]1[C@H]2C | 15.3 |
| CC1=C2C[C@H]3[C@@H](CC[C@@H]4Cc5[nH]ncc5C[C@@]43C)[C@@H]2CC[C@@]2(C1)O[C@@H]1C[C@H](C)CN[C@H]1[C@H]2C | 6 |
